- Target Entity: EhMySH3 (SH3 domain of EhMyosin IB) (Entamoeba histolytica)
- Method: SPR binding of peptides to immobilized EhMySH3 (Autolab SPR)
- Test Conditions: SPR kinetic analysis, peptide passed over immobilized EhMySH3; 10 mM HEPES, 150 mM NaCl, 3 mM EDTA, 0.05% NP-40, pH 7.4; 25°C; text: values could not be calculated accurately (peptides about 1000 Da); read-out: Binding affinity (KD, equilibrium dissociation constant)
Ends that are not written are not given here.
Readout: Kd (µM)
Enter your answer as a number in µM; do not include the unit.

Consider the worked cases shown below.
> print(dat)
   sequence.input                             target.entity  readout  test.result
1   SLPPKPLR [P1]  EhMySH3 (SH3 domain of EhMyosin IB) (Entamoeba histolytica)       Kd          400
2  QHCPNVPII [P5]  EhMySH3 (SH3 domain of EhMyosin IB) (Entamoeba histolytica)       Kd          700

Please report Kd for the following sequence: NIVPIQPPQ [P3]
1000
